Data origin: paper PMC9867241

- Run description: Cu^2+ chelation assay (murexide competition)
- Condition info: 3.36 µg/mL
Endpoint name: Cupric ions Chelation Capacity (%)
State just the number; it will be interpreted in %.

C=CCn1c(SCC(=O)NN=Cc2ccc(O)c(O)c2O)nc2ccccc2c1=O [Compound 5a] :: 20.33
O=C(CSc1nc2ccccc2c(=O)n1Cc1ccccc1)NN=Cc1ccc(O)c(O)c1O [Compound 5b] :: 11.17
CCn1c(SCC(=O)NN=Cc2ccc(O)c(O)c2O)nc2ccccc2c1=O [Compound 5c] :: 13.06
C=CCn1c(SCC(=O)NN=C(C)c2ccc(O)cc2O)nc2ccccc2c1=O [Compound 6a] :: 10.96
CCCCn1c(SCC(=O)NN=C(C)c2ccc(O)cc2O)nc2ccccc2c1=O [Compound 6d] :: 5.98

Looking up CCn1c(SCC(=O)NN=C(C)c2ccc(O)cc2O)nc2ccccc2c1=O [Compound 6c] , I found its Cupric ions Chelation Capacity (%) recorded as 7.47

Looking up O=C([O-])CN(CCN(CC(=O)[O-])CC(=O)O)CC(=O)O.[Na+].[Na+] [EDTA-Na2, reference compound] , I found its Cupric ions Chelation Capacity (%) recorded as 10.39

Looking up CC(=NNC(=O)CSc1nc2ccccc2c(=O)n1Cc1ccccc1)c1ccc(O)cc1O [Compound 6b] , I found its Cupric ions Chelation Capacity (%) recorded as 6.77

Looking up CCCCn1c(SCC(=O)NN=Cc2ccc(O)c(O)c2O)nc2ccccc2c1=O [Compound 5d] , I found its Cupric ions Chelation Capacity (%) recorded as 14.19

====

- Tested on: LNCaP (prostate carcinoma) cells
- Run description: Cytotoxicity, Alamar blue assay, LNCaP cells
- Assay type: cell-based
- Condition info: Homo sapiens, 24 h exposure
In plain terms, low IC50, meaning strictly below 50 µg/mL, gives Condition met, and everything else gives Condition not met.

CC(=NNC(=O)CSc1nc2ccccc2c(=O)n1Cc1ccccc1)c1ccc(O)cc1O :: Condition met
CCCCn1c(SCC(=O)NN=Cc2ccc(O)c(O)c2O)nc2ccccc2c1=O :: Condition not met
C=CCn1c(SCC(=O)NN=C(C)c2ccc(O)cc2O)nc2ccccc2c1=O :: Condition met
CCn1c(SCC(=O)NN=C(C)c2ccc(O)cc2O)nc2ccccc2c1=O :: Condition not met
CCn1c(SCC(=O)NN=Cc2ccc(O)c(O)c2O)nc2ccccc2c1=O :: Condition met

**Query** Criterion: IC50 strictly below 50 µg/mL. Is it met by CCCCn1c(SCC(=O)NN=C(C)c2ccc(O)cc2O)nc2ccccc2c1=O ?
**Result** Condition met

**Query** Criterion: IC50 strictly below 50 µg/mL. Is it met by O=C(CSc1nc2ccccc2c(=O)n1Cc1ccccc1)NN=Cc1ccc(O)c(O)c1O ?
**Result** Condition not met

**Query** Criterion: IC50 strictly below 50 µg/mL. Is it met by C=CCn1c(SCC(=O)NN=Cc2ccc(O)c(O)c2O)nc2ccccc2c1=O ?
**Result** Condition met

**Query** Criterion: IC50 strictly below 50 µg/mL. Is it met by COc1cccc2c1C(=O)c1c(O)c3c(c(O)c1C2=O)C[C@@](O)(C(=O)CO)C[C@@H]3O[C@H]1C[C@H](N)[C@H](O)[C@H](C)O1 [Doxorubicin, reference compound] ?
**Result** Condition met
